test_system: PRMT5 (Homo sapiens, UniProt O14744)
Construct: purchased Viva (custom protein)
Sequence (O14744 whole entry): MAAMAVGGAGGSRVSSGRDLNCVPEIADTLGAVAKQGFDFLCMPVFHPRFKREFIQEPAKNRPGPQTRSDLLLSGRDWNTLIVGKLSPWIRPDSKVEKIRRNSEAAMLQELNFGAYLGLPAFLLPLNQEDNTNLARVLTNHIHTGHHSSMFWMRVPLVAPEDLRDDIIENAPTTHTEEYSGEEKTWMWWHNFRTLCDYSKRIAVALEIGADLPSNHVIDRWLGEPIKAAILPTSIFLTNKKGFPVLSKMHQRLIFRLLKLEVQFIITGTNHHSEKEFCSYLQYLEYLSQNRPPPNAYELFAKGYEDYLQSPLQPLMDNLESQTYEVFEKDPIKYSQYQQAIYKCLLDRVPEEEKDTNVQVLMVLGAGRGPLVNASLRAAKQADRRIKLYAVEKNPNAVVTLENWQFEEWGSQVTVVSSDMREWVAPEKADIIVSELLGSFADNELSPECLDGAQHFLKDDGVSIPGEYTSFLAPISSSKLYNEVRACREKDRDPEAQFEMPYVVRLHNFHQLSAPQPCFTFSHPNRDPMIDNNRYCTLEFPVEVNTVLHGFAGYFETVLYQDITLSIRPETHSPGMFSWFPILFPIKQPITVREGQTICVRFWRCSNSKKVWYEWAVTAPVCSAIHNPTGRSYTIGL
Sequence (Q9BQA1 whole entry partner): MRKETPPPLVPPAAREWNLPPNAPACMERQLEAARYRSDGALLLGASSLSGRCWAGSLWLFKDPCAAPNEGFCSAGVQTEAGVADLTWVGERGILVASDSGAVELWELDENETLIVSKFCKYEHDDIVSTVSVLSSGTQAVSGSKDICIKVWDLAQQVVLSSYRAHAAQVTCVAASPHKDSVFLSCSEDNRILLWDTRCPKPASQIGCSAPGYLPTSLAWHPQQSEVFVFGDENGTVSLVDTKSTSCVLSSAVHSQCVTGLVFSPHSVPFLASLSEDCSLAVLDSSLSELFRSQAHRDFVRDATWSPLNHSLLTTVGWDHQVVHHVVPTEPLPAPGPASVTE
assay_method_text: PRMT5 biochemical IC50 assay with SAM as cofactor
condition_notes: PRMT5, SAM as cofactor; read-out: SAM IC50
reported_metric: IC50

Exam item: Consider the molecule C[C@@H]1CC[C@@H](c2ccc(N)nc2)N(C(=O)C(=O)Nc2cncc(C(N)=O)c2)C1 (racemic) [Compound 224] and give its measured IC50.
Marked response: 50 to 500 nM

Exam item: Same question, CCc1cc(NC(=O)C(=O)N2C[C@H](C)CC[C@H]2c2cc(Cl)cc(Cl)c2)cnc1N (single isomer, unassigned) this time
Marked response: > 500 nM

Exam item: Same question, CCc1cc(NC(=O)C(=O)N2C[C@@H](C)CC[C@@H]2c2ccc(C(N)=O)s2)cnc1N (single isomer, unassigned) this time
Marked response: > 500 nM

Exam item: Same question, C[C@H]1CC[C@H](c2cc(F)c3[nH]ncc3c2)N(C(=O)C(=O)Nc2cncc(C(N)=O)c2)C1 (single isomer, unassigned) this time
Marked response: > 500 nM

Exam item: Same question, CCc1cc(NC(=O)C(=O)N2C[C@@H](C)CC[C@@H]2c2ccc(N3CC[C@@H]4CCN(C)C[C@@H]4C3)cc2)cnc1N (single isomer, unassigned) this time
Marked response: 50 to 500 nM

Exam item: Same question, Cc1cncc(NC(=O)C(=O)N2C[C@@H](C)CC[C@H]2c2cccc(F)c2)c1 (single isomer, unassigned) this time
Marked response: > 500 nM

* * *

What pIC50 was measured for each of the following?
test_system: PRMT5 (Homo sapiens)
Construct: purchased Viva (custom protein)
assay_method_text: PRMT5 biochemical IC50 assay with no cofactor
condition_notes: PRMT5, no cofactor; read-out: No Cofactor/rel IC50
pIC50: −log10 of the molar value.

Exam item: Consider the compound C[C@@H]1CC[C@@H](c2ccc(NCC(=O)N(C)C)cc2)N(C(=O)C(=O)Nc2cncc(C(N)=O)c2)C1 (single isomer, unassigned) and give its measured pIC50.
Marked response: 6.30 to 7.30

Exam item: Same question, Cc1cc(NC(=O)C(=O)N2C[C@H](C)CC[C@H]2c2ccc(-c3ccn[nH]3)s2)cnc1N (racemic) this time
Marked response: 6.30 to 7.30

Exam item: Same question, CNc1nc2cc([C@H]3CC[C@H](C)CN3C(=O)C(=O)Nc3cnc(OC)c(C(N)=O)c3)ccc2s1 (single isomer, unassigned) this time
Marked response: > 7.30

Exam item: Same question, Cc1c(NC(=O)C(=O)N2C[C@@H](C)CC[C@@H]2c2ccccc2)cnc(N)c1C (single isomer, unassigned) this time
Marked response: 6.30 to 7.30

Exam item: Same question, Cc1cc(NC(=O)C(=O)N2C[C@@H](C)CC[C@@H]2c2cc[nH]n2)cnc1N (single isomer, unassigned) this time
Marked response: 6.30 to 7.30

Exam item: Same question, Cc1cc(NC(=O)C(=O)N2C[C@H](C)CC[C@H]2c2ccc3c(c2)CCC(=O)N3)cnc1C (relative stereo) this time
Marked response: > 7.30

* * *

What IC50 was measured for each of the following?
test_system: PRMT5 (Homo sapiens)
Construct: purchased Viva (custom protein)
assay_method_text: PRMT5 biochemical IC50 assay with MTA as cofactor
condition_notes: PRMT5, MTA as cofactor; read-out: MTA IC50

Exam item: PRMT5 (Homo sapiens) / IC50 / `CCc1cc(NC(=O)C(=O)N2C[C@@H](C)CC[C@@H]2c2ccc3sc(C4CN(C)C4)nc3c2)cnc1N` : value?
Marked response: < 50 nM

Exam item: Same question, Cc1cc(NC(=O)C(=O)N2C[C@H](C)CC[C@H]2c2ccc(CCN(C)C)cc2)cnc1N (racemic) [Compound 1233] this time
Marked response: < 50 nM

Exam item: Same question, Cc1cc(NC(=O)C(=O)N2C[C@H](C)CC[C@H]2[C@H]2CC[C@H](C(C)(C)C)CC2)cnc1N (single isomer, unassigned) this time
Marked response: < 50 nM

Exam item: Same question, Cc1cccc(C2CCCCN2C(=O)C(=O)Nc2cnc(N)c(C)c2)c1 (racemic) this time
Marked response: < 50 nM

Exam item: Same question, Cc1cc(NC(=O)C(=O)N2C[C@H](C)CC[C@H]2c2ccc(C(N)=O)s2)cnc1N (single isomer, unassigned) [Compound 823] this time
Marked response: > 500 nM

Exam item: Same question, CC(=O)N[C@H]1CCN(C(=O)C(=O)Nc2cncc(C(N)=O)c2)[C@@H](c2ccccc2)C1 (racemic) this time
Marked response: 50 to 500 nM

Exam item: Same question, `CCc1cc(NC(=O)C(=O)N2C[C@@H](C)CC[C@@H]2c2ccc3sc([C@@H]4CCN(C)C(=O)C4)nc3c2)cnc1N` this time
Marked response: < 50 nM
